Target: PTGER2 (EP2) (Homo sapiens (Human))
Sequence (P43116 whole entry): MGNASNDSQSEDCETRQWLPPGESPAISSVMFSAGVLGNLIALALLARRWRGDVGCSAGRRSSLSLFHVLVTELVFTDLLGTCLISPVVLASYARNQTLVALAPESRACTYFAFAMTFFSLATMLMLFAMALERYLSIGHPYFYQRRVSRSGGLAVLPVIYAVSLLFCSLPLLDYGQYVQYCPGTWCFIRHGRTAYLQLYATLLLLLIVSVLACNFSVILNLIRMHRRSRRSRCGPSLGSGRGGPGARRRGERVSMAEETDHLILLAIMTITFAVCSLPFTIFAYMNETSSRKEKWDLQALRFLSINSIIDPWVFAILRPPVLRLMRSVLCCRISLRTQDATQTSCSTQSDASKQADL
Experiment: hEP2 b-arrestin assay (PathHunter HEK 293 PTGER2 b-arrestin cells)
Conditions: antagonistic activity, beta-arrestin assay; read-out: hEP2 b-arr IC50
recorded.metric: IC50 (µM)

{"compound": "CCOc1cc(-c2cc(NCCc3ccc4cc[nH]c4c3)ncn2)ccc1OC(C)C(=O)O (centres unmarked)", "recorded.metric": "IC50", "endpoint.value": 0.329}
{"compound": "COc1cc2c(cc1CCNc1cc(-c3ccc4oc(C(=O)O)cc4c3)ncn1)OCCO2", "recorded.metric": "IC50", "endpoint.value": 0.275}
{"compound": "CCc1cc(-c2cc(NCCc3cc4c(cc3OC)OCCO4)ncn2)ccc1CC(=O)O", "recorded.metric": "IC50", "endpoint.value": 0.231}

I. CCCOc1cc(-c2cc(NCCc3ccc4sccc4c3)ncn2)ccc1CC(=O)O
II. CCOc1cc(-c2cc(NCCc3cc(F)c4sccc4c3)ncn2)sc1C(=O)O
[Q] Of I and II , whose reported IC50 is the larger number? Answer by quoting the chosen item's label.
[A] I

A. CCOc1cc(-c2cc(NCCc3ccc4scc(C)c4c3)ncn2)ccc1OCC(=O)O
B. CCCc1cc(-c2cc(NCCc3c(OC)cc4ccccc4c3C)ncn2)ccc1C(=O)O
[Q] Field: lower IC50 | Options: A / B Select an item and report its label.
[A] B
(B: 0.016 µM, A: 0.206 µM)

Data origin, for the record: patent US11839613B2
